# Tested on: A/Hamburg/05/2009 (H1N1)
# Assay type: cell-based, influenza virus
Listed sequences paired with reported Viability of infected cells relative to aprotinin, Replicate 1

Look over these answered cases.
Req: Form: Entry = SLLGLLDVVKNKVGQIG [LS-AMP-A4] | System = A/Hamburg/05/2009 (H1N1) | Viability of infected cells relative to aprotinin, Replicate 1 = ____
Resp: 0.03111

Req: Same for SLLGLLDVVKSKIGQT [LS-AMP-A15]
Resp: 0.04491

Req: Same for SLLGLLDVVKNTVGQ [LS-AMP-A11]
Resp: 0.05004

Req: Same for SLFGLLDLVKSKVGQTGLL [LS-AMP-A1]
Resp: 0.03121

Req: Same for GSLLGLLDVVKSKVGQTGLL [LS-AMP-A19]
Resp: 0.03506

Req: Same for SLLGLLDVVKNKVGQIGLL [LS-AMP-A3]
Resp: 0.0465

Others:
Req: Form: Entry = DVVKSKVGQT [LS-AMP-A20] | System = A/Hamburg/05/2009 (H1N1) | Viability of infected cells relative to aprotinin, Replicate 1 = ____
Resp: 0.03404

Req: Same for SLLGLLDVVKNTVGQTG [LS-AMP-A9]
Resp: 0.04771

Req: Same for LLDVVKSKIGQTGLL [LS-AMP-A16]
Resp: 0.02774
